target: SNARE complex (VAMP, syntaxin, SNAP-25 bound to GST) (UniProt P60880); experiment: ELISA of SNARE complex formation (SNAP-25-GST, syntaxin, immobilized VAMP); compound at 2.5 mM
Sequence (P60880 whole entry, one chain of several): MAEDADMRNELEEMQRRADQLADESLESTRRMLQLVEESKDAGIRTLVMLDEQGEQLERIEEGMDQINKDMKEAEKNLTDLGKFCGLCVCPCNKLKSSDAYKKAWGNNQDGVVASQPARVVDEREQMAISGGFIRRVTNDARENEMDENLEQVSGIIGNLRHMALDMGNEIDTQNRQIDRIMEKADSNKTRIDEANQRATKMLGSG
Result type: % inhibition formation SNARE complex (%)

{"Binder": "Ac-EELKRWM-NH2 [Ac-SEQ ID NO: 116-NH2]", "Output unit": "%", "% inhibition formation SNARE complex": 69}
{"Binder": "Ac-QHLHNVM-NH2 [Ac-SEQ ID NO: 3-NH2]", "Output unit": "%", "% inhibition formation SNARE complex": 64}
{"Binder": "Ac-QHLKEWM-NH2 [Ac-SEQ ID NO: 12-NH2]", "Output unit": "%", "% inhibition formation SNARE complex": 71}
{"Binder": "Ac-EDLKRWM-NH2 [Ac-SEQ ID NO: 14-NH2]", "Output unit": "%", "% inhibition formation SNARE complex": 67}
{"Binder": "Ac-DHFLDWM-NH2 [Ac-SEQ ID NO: 25-NH2]", "Output unit": "%", "% inhibition formation SNARE complex": 71}
{"Binder": "Ac-DHFLNWM-NH2 [Ac-SEQ ID NO: 34-NH2]", "Output unit": "%", "% inhibition formation SNARE complex": 85}
{"Binder": "Ac-QDFLHWM-NH2 [Ac-SEQ ID NO: 2-NH2]", "Output unit": "%", "% inhibition formation SNARE complex": 64}
{"Binder": "Ac-EHFLQWM-NH2 [Ac-SEQ ID NO: 30-NH2]", "Output unit": "%", "% inhibition formation SNARE complex": 71}
